- Test system: QT interval
- assay method text: QT interval prolongation (ECG, class III action) in anesthetized guinea pigs
- Assay type: in vivo, Pirbright white guinea pigs
- experimental parameters: Cavia porcellus; guinea pigs, urethane anesthesia, intravenous; dose for 20% QT prolongation calculated from log dose (mg/kg) vs relative QT prolongation; read-out: Prolongation of the QT interval ED20%
- Protocol: The action of the novel substances has been tested as follows: The experimental animals used were male and female Pirbright white guinea pigs weighing 300-500 g. 1.5 g/kg urethane i.p. were used for anesthesia. The substances were administered intravenously. The extremity lead II was recorded to measure the ECG conduction times and the heart rate. The measured variables were the QT and PQ intervals and the heart rate. 4-6 animals were used for each dose. […]
Where a name gives a salt, the structure may show the parent alone.
For each entry below, report its ED (20%) value.
Respond numerically; units are mg/kg and should not be typed.

Request: Answer with the recorded ED (20%) for the compound listed here: Fc1ccc(C23CCCN2c2ccc(Cl)cc2C2=NCCCN23)cc1 (stereo not drawn)
Response: 1

Request: Answer with the recorded ED (20%) for the compound listed here: CC1(C)CN=C2c3ccccc3N3CCCC3(c3ccc(F)cc3)N21 (stereo not drawn) [Example 45, hydrochloride]
Response: 0.59

Request: Answer with the recorded ED (20%) for the compound listed here: CC1CN=C2c3ccccc3N3CCCC3(c3ccc([N+](=O)[O-])cc3)N21 (stereo not drawn) [Example 48, hydrochloride]
Response: 0.31

Request: Answer with the recorded ED (20%) for the compound listed here: Clc1ccc(C23CCCN2c2ccccc2C2=NCCCN23)s1 (stereo not drawn)
Response: 1.5

Request: Answer with the recorded ED (20%) for the compound listed here: Clc1ccc(C23CCCN2c2ccccc2C2=NCCCN23)cc1Cl (stereo not drawn)
Response: 0.94

Request: Answer with the recorded ED (20%) for the compound listed here: CC1(C)CN=C2c3ccccc3N3CCCC3(c3ccccc3)N21 (stereo not drawn) [Example 43, hydrochloride]
Response: 0.6

Request: Answer with the recorded ED (20%) for the compound listed here: Clc1ccc2c(c1)N1CCCC1(c1ccccc1)N1CCN=C21 (stereo not drawn)
Response: 0.4

Request: Answer with the recorded ED (20%) for the compound listed here: Clc1ccc(C23CCCN2c2ccccc2C2=NCCN23)c(Cl)c1 (stereo not drawn) [Example 13, hydrochloride]
Response: 0.99

Request: Answer with the recorded ED (20%) for the compound listed here: CC(C)NC[C@@H](O)c1ccc(NS(C)(=O)=O)cc1 [d-sotalol, reference compound]
Response: 3.6
